metric.name: melting point

Worked cases, melting point given:
[
  {
    "molecule": "CSc1ccc(-c2coc3ccc(-c4nnc(C)o4)cc23)cc1Cl",
    "melting point": "200 to 201 °C"
  },
  {
    "molecule": "COc1ccc(CN2CCc3c(cnc4[nH]ncc34)C2)cc1",
    "melting point": "184 to 186 °C"
  },
  {
    "molecule": "CC(CO)n1nnc2cc3c(=O)n(C(C)Cn4ncnn4)nnc3cc2c1=O (stereo not given)",
    "melting point": "153 to 154 °C"
  }
]

In: Item "c1ccc(COc2ccc(-c3nc(COc4ccc(CCCCn5ccnc5)cc4)co3)cc2)cc1" : provide melting point
Out: 118 to 120 °C

In: Item COC(=O)C(NCc1cn(Cc2ccccc2)c2ccccc12)c1ccccc1 (racemic) : provide melting point
Out: 72 to 75 °C

In: Item "CC(C)c1noc(-c2ncn3c2[C@@H]2CCCN2C(=O)c2c(Cl)cccc2-3)n1" : provide melting point
Out: 187 to 188 °C

In: Item "CCCOc1ccc(S(N)(=O)=O)cc1C1=NC(=O)C2=NC=NC2=N1" : provide melting point
Out: 276 to 278 °C

In: Item "NC(=O)/C(=N/O)c1ccccc1Oc1ccccc1" : provide melting point
Out: 157 to 159 °C

In: Item Cc1cc2c(c3c1NC(=O)C(C)(C)C3)OC(C)(CN=[N+]=[N-])C2 (stereo not given) : provide melting point
Out: 169 to 170 °C

In: Item COc1ccc(N2N=C3c4cc(C)sc4CCCC3CC2=O)cc1 (stereo not given) : provide melting point
Out: 136 to 138 °C

In: Item O=C(Nc1ccc(C(F)(F)F)cc1)N1CC(c2ncc(Cl)s2)C(c2ccc(F)cc2)=N1 (stereo not given) : provide melting point
Out: 188 to 189 °C

In: Item CC(C)(Cc1ccccc1)C(NC(=O)c1ccncc1)Nc1c(Nc2cccnc2)c(=O)c1=O (stereo not given) : provide melting point
Out: 251 to 254 °C
